Listed next: entries and their corresponding pKd.
target: MAGI2_2, Q86UL8; experiment: holdup assay; set-up: key: below the threshold = too weak to quantify, mostly under pKd 3.1 to 4; details: plain residues with an end cap or a label only (N-terminal biotin on a linker: ttds)
Sequence (Q86UL8 410-522): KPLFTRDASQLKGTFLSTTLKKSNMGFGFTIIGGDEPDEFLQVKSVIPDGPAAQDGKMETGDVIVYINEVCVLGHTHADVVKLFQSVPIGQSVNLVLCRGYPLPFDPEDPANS
measurement_type: pKd

binder	assay_result
STLTIFETAL [ABCC4, O15439]	4.13
SVWLRKETRV [CYSLTR2, Q9NS75]	5.68
